- protocol_text: Drug uptake in BALB/c mouse large intestine implanted with mouse 4T1 cells assessed per gram of tissue at 0.18 mg/kg, ip after 48 hrs by HPLC-based fluorescence analysis
- Format: ADME, organism-based
- condition_summary: in vivo
property_label: Drug uptake (ng/g)
Report as a plain number; the unit ng/g is understood.

Quick check: Drug uptake of CN1CC2C3=N/C(=C(/c4c(F)c(F)c(S[C@@H]5O[C@H](CO)[C@@H](O)[C@H](O)[C@H]5O)c(F)c4F)C4=N/C(=C(/c5c(F)c(F)c(F)c(F)c5F)c5ccc([nH]5)/C(c5c(F)c(F)c(S[C@@H]6O[C@H](CO)[C@@H](O)[C@H](O)[C@H]6O)c(F)c5F)=C5/C=CC(=N5)C3c3c(F)c(F)c(F)c(F)c3F)C=C4)C2C1 (stereo partly specified) ?
17
